System: Colon cancer organoid
Assay remarks: Targeting of F14 CAF-induced therapy resistance in O23 CRC organoid-stroma co-culture. Cell viability is reported with SN-38.
Format: functional, Homo sapiens
Conditions: Homo sapiens, Concentration 10 uM; read-out: Cell Viability
Can you tell me viability at 10 µM for the items I'm about to list?
Give your result in % as a bare value.

Exam item: Give viability at 10 µM for `CC1=C(C#N)C(c2ccc3c(c2)c(NC(=O)c2ccccc2C)nn3C)C(C#N)=C(C)N1`
Marked response: 57.9

Exam item: Using known records, supply viability at 10 µM for `Cc1cc2c(-c3ccco3)cnc(N[C@H]3CCN(C)C[C@@H]3C(=O)NC3CCCCC3)c2[nH]c1=O`
Marked response: 81.3

Exam item: Recall and state the measured viability at 10 µM for `Cc1c(Nc2ccc(S(=O)(=O)N3CCN(C)CC3)cc2F)nc2ccc(-c3cnn(C4CC4)c3)cn2c1=O` .
Marked response: 85.7

Exam item: Identify viability at 10 µM associated with the molecule `COc1ccccc1-c1cc(N2CCN(C(=O)OC(C)(C)C)CC2)c(N)nn1`
Marked response: 35.8
